- TARGET UNDER TEST: HPK1 (Homo sapiens)
- Sequence (Q92918 1-346 limits assumed): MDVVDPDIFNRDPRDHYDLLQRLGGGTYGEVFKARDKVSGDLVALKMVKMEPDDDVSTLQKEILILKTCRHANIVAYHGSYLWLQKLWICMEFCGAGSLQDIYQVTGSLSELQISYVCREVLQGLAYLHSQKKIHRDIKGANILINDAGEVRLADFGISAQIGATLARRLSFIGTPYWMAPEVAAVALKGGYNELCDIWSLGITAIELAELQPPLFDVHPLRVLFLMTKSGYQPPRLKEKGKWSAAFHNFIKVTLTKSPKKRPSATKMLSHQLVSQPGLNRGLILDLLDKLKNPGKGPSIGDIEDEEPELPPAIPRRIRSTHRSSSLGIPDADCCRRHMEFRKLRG
- RUN DESCRIPTION: HPK1 kinase activity assay (ADP-Glo)
- CONDITION SUMMARY: HPK1 Kinase activity IC50 (nM), 1 nM HPK1, 10 μM ATP, 0.1 μg/μL MBP
VALUE KIND: IC50 (nM)

{"columns": ["COMPOUND", "VALUE KIND", "READOUT NUMBER"],
 "data": [
  ["COCC(=O)N1CCc2cc(-c3cnc4[nH]cc(C(C)C)c4c3)cc([C@@H]3COCCN3)c2C1", "IC50", 0.31],
  ["CN1CCc2cc(-c3cnc(N)c(-c4cnn(C)c4)c3)cc(C3CCCN3)c2C1 (stereo not drawn)", "IC50", 48.7],
  ["Cc1ccc(C(=O)N2CCc3cc(-c4cnc5[nH]cc(C)c5c4)cc([C@@H]4CCCN4)c3C2)nc1", "IC50", 0.78]
]}

(A) Cc1ccc(C(=O)N2CCc3cc(-c4cnc5[nH]cc(C)c5c4)cc([C@@H]4CCCN4)c3C2)cn1
(B) Cc1ncc(C(=O)N2CCc3cc(-c4cnc5[nH]cc(C)c5c4)cc([C@@H]4CCCN4)c3C2)cn1
A or B : whose IC50 is greater? Label of pick, please. A
